- System: K12877-001-R-J1-PDC complex spheroid viability
- Assay details: Anticancer human tumor K12877-001-R-J1-PDC patient-derived lung adenocarcinoma cell line growth inhibition [RAS]
- Setup conditions: curve of compound
Property: IC50

Solved entries (count: 3):
[[record]]
compound = "C[C@@H](NC(=O)c1ncnc(N)c1Cl)c1ncc(C(=O)Nc2cc(C(F)(F)F)c(Cl)cn2)s1"
result = "> 10000 nM"

[[record]]
compound = "CCN1CCN(Cc2ccc(Nc3ncc(F)c(-c4cc(F)c5nc(C)n(C(C)C)c5c4)n3)nc2)CC1"
result = "> 1000 nM"

[[record]]
compound = "Cc1nc(N2CCC3(CC2)COC(C)C3N)c(CO)nc1Sc1ccnc(N)c1Cl (stereo not drawn)"
result = "> 10000 nM"


Exercise: IC50 for Nc1ccn(C2OC(CO)C(O)C2(F)F)c(=O)n1 (stereo not drawn) ?
Key: 17.6 nM [middle of 4 runs]

Exercise: IC50 for C=CC(=O)Nc1cc(Nc2nccc(-c3cn(C)c4ccccc34)n2)c(OC)cc1N(C)CCN(C)C ?
Key: > 1000 nM

Exercise: IC50 for CC(=O)OC12COC1CC(O)C1(C)C(=O)C(O)C3=C(C)C(OC(=O)C(O)C(NC(=O)OC(C)(C)C)c4ccccc4)CC(O)(C(OC(=O)c4ccccc4)C21)C3(C)C (stereo not drawn) ?
Key: < 31.6 nM

Exercise: IC50 for CCc1c2c(nc3ccc(O)cc13)-c1cc3c(c(=O)n1C2)COC(=O)[C@]3(O)CC ?
Key: 5.02 nM [middle of 4 runs]

Exercise: IC50 for C=CC(=O)N1CCN(c2nc(OCC3CCCN3C)nc3c(F)c(-c4nc(N)cc(C)c4C(F)(F)F)c(Cl)cc23)C(C)C1 (stereo not drawn) ?
Key: > 1000 nM

* * *

Reported pIC50 values follow for various compounds
- System: K12877-001-R-J1-PDC complex spheroid viability
- Assay details: Anticancer human tumor K12877-001-R-J1-PDC cell line growth inhibition [RAS];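 also: spheroids exposed to agents for one week before readout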
- Setup conditions: curve of first compound; second compound 0.00949 µM
- Text: RAS pathway inhibitors in Combinations in Complex Spheroids A high-throughput screen of multi-cell type tumor spheroids was designed to identify active combinations of RAS pathway inhibitors and targeted small molecules. Complex spheroids include a stromal component modeled by human endothelial cells (HUVEC) and fibroblasts modeled by human mesenchymal stem cells (MSCs). […] Compounds. […] If the clinical Cmax for an agent had not been determined, the highest concentration tested was 10 microM. […]
Expect pIC50 as a plain number equal to -log10 of the molar concentration.

[[record]]
compound = "CC1(C)CCC(Nc2ncc(C(F)(F)F)c(-c3c[nH]c4c(P(C)(C)=O)c(C#N)ccc34)n2)CN1 (centres undefined) + CCn1c(-c2cc(N3CCN(C)CC3)cnc2C(C)OC)c2c3cc(ccc31)-c1csc(n1)CC(NC(=O)C1CC1C)C(=O)N1CCCC(N1)C(=O)OCC(C)(C)C2"
system_tested = "K12877-001-R-J1-PDC complex spheroid viability"
recorded_number = 7.56


// next item, pIC50 requested
Exercise: pIC50 for Nc1ccn(C2OC(CO)C(O)C2(F)F)c(=O)n1 (centres undefined) + CCn1c(-c2cccnc2C(C)OC)c2c3cc(ccc31)N1CCOC(CC(NC(=O)C(C(C)C)N(C)C(=O)C3(F)CCN(C(=O)C#CC(C)(C)N(C)C)CC3)C(=O)N3CCCC(N3)C(=O)OCC(C)(C)C2)C1 ?
Key: 7.90
